target-entity: Leucine aminopeptidase (Plasmodium falciparum 3D7)
Sequence (Q8IL11 whole entry): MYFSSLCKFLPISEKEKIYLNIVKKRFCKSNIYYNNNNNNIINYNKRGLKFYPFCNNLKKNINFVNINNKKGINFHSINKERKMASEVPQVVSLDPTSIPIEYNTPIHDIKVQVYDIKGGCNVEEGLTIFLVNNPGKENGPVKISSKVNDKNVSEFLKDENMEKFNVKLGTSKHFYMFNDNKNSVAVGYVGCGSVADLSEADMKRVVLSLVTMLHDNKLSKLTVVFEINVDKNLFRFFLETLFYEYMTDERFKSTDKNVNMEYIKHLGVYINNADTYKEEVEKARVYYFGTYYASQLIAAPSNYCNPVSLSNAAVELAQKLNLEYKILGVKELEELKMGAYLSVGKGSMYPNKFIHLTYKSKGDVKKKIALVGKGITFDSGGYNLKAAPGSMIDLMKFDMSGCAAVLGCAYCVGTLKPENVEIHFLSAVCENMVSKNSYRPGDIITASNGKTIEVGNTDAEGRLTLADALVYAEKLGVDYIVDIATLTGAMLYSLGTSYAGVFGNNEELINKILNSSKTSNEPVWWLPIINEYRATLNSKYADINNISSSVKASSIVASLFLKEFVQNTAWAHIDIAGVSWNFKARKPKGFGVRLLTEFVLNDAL
test-protocol: P. falciparum M17LAP inhibitors, primary screen, biochemical, fluorogenic H-Leu-NHMec substrate, 1536-well (AID 1619)
Format: functional
Activity calls are given as the source filed them.
# IC50 listing for each entry below

INPUT: Reported IC50, compound Cc1cccc(NC(=O)CSc2nc3n[nH]cc3c(=O)[nH]2)c1C : ____
OUTPUT: 4.46 µM (active)

Others:
INPUT: Bench note: what IC50 did COc1cccc2c(=O)n(CC(=O)N3CCC(C)CC3)ccc12 show?
OUTPUT: 42.5 µM (active)

INPUT: Quick one: IC50 for CN1CCN(C2=CC3=CC(=C(C#N)C#N)CCC3CC2)CC1 (centres undefined) ?
OUTPUT: 100 µM (active)

INPUT: Report IC50 for CCOc1ccccc1Nc1nnc(SCC(=O)NC(Cc2c[nH]c3ccccc23)C(=O)O)s1 (centres undefined) please.
OUTPUT: 7.81 µM (active)

###

target-entity: SUMO-activating enzyme (Homo sapiens, UniProt Q9UBT2)
Sequence (Q9UBE0 whole entry): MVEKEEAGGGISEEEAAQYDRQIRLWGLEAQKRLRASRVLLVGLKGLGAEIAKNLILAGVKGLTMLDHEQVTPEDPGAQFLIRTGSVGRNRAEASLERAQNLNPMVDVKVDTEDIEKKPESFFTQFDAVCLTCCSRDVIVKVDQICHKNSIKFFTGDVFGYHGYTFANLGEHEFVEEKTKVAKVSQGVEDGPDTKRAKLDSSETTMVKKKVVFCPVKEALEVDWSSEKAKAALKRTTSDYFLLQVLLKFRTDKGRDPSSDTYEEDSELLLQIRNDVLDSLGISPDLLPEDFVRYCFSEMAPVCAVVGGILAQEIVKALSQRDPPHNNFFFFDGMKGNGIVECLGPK
Sequence (Q9UBT2 whole entry): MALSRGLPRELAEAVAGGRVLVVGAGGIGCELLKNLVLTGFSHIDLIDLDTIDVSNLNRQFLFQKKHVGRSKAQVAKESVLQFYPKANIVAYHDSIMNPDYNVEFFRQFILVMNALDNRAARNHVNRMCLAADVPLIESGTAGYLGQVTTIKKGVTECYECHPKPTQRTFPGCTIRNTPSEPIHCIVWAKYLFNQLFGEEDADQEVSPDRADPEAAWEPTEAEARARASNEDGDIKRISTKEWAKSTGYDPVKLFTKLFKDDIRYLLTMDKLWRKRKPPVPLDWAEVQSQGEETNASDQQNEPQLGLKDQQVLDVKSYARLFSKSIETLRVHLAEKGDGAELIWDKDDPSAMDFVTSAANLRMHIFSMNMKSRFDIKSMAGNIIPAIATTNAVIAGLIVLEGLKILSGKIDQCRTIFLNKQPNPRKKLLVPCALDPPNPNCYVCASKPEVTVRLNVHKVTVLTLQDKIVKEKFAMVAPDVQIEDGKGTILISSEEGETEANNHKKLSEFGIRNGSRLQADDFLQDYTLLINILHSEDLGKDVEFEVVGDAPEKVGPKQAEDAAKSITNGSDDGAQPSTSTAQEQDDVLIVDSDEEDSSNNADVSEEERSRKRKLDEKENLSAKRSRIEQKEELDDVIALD
test-protocol: blockers of SAE1/SAE2–UBC9 SUMO transfer – biochemical, HTRF, uHTS, primary screen (AID 2006)
Format: protein-complex assay
Activity calls are given as the source filed them.
measurement-label: IC50

INPUT: GET /values?readout=IC50&item= O=C(Nc1ccc2oc(=O)ccc2c1)c1ccc(-c2cccc(Cl)c2)o1
OUTPUT: 6.77 µM (active)

INPUT: Would you kindly share the measured IC50 for CCOC(=O)Cn1/c(=N/C(=O)c2sc3ccccc3c2Cl)sc2cc(S(N)(=O)=O)ccc21 ?
OUTPUT: 4.97 µM (active)

INPUT: Would you kindly share the measured IC50 for Cc1ccc(NC(=O)Cn2c(O)c(N=NC(=O)c3cc4ccccc4cc3O)c3ccccc32)cc1 ?
OUTPUT: 10.7 µM (active)

INPUT: I am curious: what IC50 value has been reported for O=C1NC(=S)NC(=O)C1=NNc1ccc(-c2ccccc2)cc1[N+](=O)[O-] ?
OUTPUT: 22.4 µM (active)

INPUT: Give its IC50 value. Item: C=CCC(Nc1ccccc1)C12C=CC(O1)C(C(=O)OC)=C2C(=O)OC (stereo not given)
OUTPUT: 1.98 µM (active)

###

target-entity: Small ubiquitin-related modifier 1 (Homo sapiens, UniProt P63165)
Sequence (P63165 whole entry): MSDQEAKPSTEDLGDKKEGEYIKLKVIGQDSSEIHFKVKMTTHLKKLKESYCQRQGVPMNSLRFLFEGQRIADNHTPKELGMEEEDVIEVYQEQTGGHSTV
test-protocol: SUMO1 protein-protein binding blockers, potency – biochemical, FRET, dose response (AID 624383)
Format: functional
condition-set: read-out: IC50_Mean
The source made the active and inactive calls.
IC50 listing for selected molecules.

INPUT: IC50 for NC1=C2C(=O)c3ccccc3C(=O)C2=C(N)CC1 ?
OUTPUT: 52.4 µM (inactive)

###

target-entity: Carboxy-terminal domain RNA polymerase II polypeptide A small phosphatase 1 (Homo sapiens)
Sequence (Q9GZU7 whole entry, the tested form may be a part): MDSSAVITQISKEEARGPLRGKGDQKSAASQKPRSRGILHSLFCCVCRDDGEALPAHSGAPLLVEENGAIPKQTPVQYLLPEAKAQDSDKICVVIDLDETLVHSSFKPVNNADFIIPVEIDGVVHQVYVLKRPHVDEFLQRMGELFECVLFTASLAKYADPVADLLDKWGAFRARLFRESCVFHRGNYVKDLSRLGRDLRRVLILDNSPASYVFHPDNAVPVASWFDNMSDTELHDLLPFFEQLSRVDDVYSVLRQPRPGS
test-protocol: CTDSP1 inhibitors, concentration-response, biochemical, absorbance readout, ultra-high-throughput screen actives (AID 540297)
Format: functional
Activity calls are given as the source filed them.
measurement-label: IC50

INPUT: Endpoint output: IC50 of COc1ccccc1N1C(=N)S/C(=C\c2ccc(-c3ccccc3C(=O)O)o2)C1=O . Value?
OUTPUT: 8.51 µM (active)

INPUT: Returns the measured IC50 for the input compound. Input: CS(=O)(=O)C1=NSC2=NC(=O)/C(=C\c3cccn3-c3ccc(Cl)cc3)C(=N)N21
OUTPUT: 5.93 µM (active)

Now consider the entry below.
INPUT: Query (compound): Cc1cc(C(=O)O)ccc1-c1ccc(/C=C2\NC(=O)N(Cc3ccccc3Cl)C2=O)o1 ; field requested: IC50
OUTPUT: 7.71 µM (active)
